The measurements presented in this section are drawn from the SangsterLogP compilation.

Exercise: state measured logP for each of the compounds provided.
Give bare numbers.

Worked examples, 6 compounds total:
CC(C)c1noc(-c2ccc(N)cc2)n1    2.57
CC(C)c1nnc(-c2ccc(N)cc2)o1    2.23
CCc1nnc(-c2ccc(N)cc2)o1    1.92
CCCc1noc(-c2ccc(N)cc2)n1    2.61
Nc1ccc(-c2nc(Cc3ccccc3)no2)cc1    3.24
CCC(=O)c1ccc(N)cc1    1.65

Provide logP values for the following items, in order.
1. Cc1nc(-c2ccc(N)cc2)no1
2. CCCCc1nnc(-c2ccc(N)cc2)o1
3. Nc1ccc(-c2nc(-c3ccccc3)no2)cc1
4. CCCCC(=O)c1ccc(N)cc1
5. Nc1ccc(-c2nnc(Cc3ccccc3)o2)cc1
6. CCCc1nc(-c2ccc(N)cc2)no1

1. 1.71
2. 2.66
3. 3.48
4. 2.48
5. 2.82
6. 2.54

Requested field: logP. Item: CCCc1nnc(-c2ccc(N)cc2)o1
2.27
